Experimental Target: Tiam1 PDZ domain (residues 841-930) (human, UniProt Q13009 841-930)
Sequence (Q13009 841-930): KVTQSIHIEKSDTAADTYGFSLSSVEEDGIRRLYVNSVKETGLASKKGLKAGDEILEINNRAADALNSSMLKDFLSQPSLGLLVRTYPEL
Experimental Protocol: fluorescence polarisation
Ends that are not written are not given here. * marks the point of attachment. Dansyl = CN(C)c1cccc2c(S(=O)(=O)*)cccc12
Value Type: Kd (µM)
Answer in µM, number only, no unit symbol.

Sample answers from the record:
Dansyl-TKQEEFYA [Syndecan1 C-terminal peptide (residues 303-310), N-terminally dansylated (dan-TKQEEFYA)] :: 26.9
Dansyl-TKQEEFYF [Syndecan1(A→F) peptide, dansylated (dan-TKQEEFYF)] :: 55.7
Dansyl-ENQKEYFA [Caspr4(F→A) peptide, dansylated (dan-ENQKEYFA)] :: 64.8

Okay, next one:
Prompt line: Entry Dansyl-ENQKEYFF [Caspr4 C-terminal peptide (residues 1301-1308), N-terminally dansylated (dan-ENQKEYFF)] has what Kd?
Response line: 16.8
